# Test system: F1 hybrid maize plants
# Method: efficacy field trial with segregating F1 hybrid plants
# Type: in vivo
# Stated Conditions: CTP A; 2,4-D amine 2× at VE-V2 (plus quizalofop-P 0.5×), V4, V8
Measure Name: % Injury from V8 2,4-D (%)
Kindly answer with a numeric value in %, unit omitted.

Molecule: MON-HT9: engineered oxygenase protein, amino acid sequence SEQ ID NO:40 (protein) MHAALTPLTNKYRFIDVQPLTGVLGAEITGVDLREPLDDSTWNEILDAFHTYQVIYFPAQQITNEQHISFSRRFGPVDPVPLLKSIEGYPEVQMIRREANESGRILGDDWHTDSTFLDAPPAAVVMRAIEVPEYGGDTGFLSMYSAWDTLSDTMKATIEGLNVVHSATRVFGSLYQAQNWRFSNTSVKVMDVDAGDRETVHPLVVSHPVTGRRALYCNQVYCQRIEGMTDAESKCLLQFLYEHATKFDFTCRVRWKKDQVLVWDNLCTMHRAVPDYAGKFRYLTRTTVAGDRPAR
Measure Name: % Injury from V8 2,4-D
Reading: 40

Q: // fetch % Injury from V8 2,4-D given entry MON-HT6: engineered oxygenase protein, amino acid sequence SEQ ID NO:31 (protein) MHAALSPLSQKYRFIDVQPLTGVLGAEITGVTLREPLDDNTWNEILDAFHTYQVIYFPGQAITNEQHIAFSRRFGPVDPVPLLKSIEGYPEVQMIRREANESGRVIGDDWHTDSTFLDAPPAAVVMYAREVPPYGGDTGFLSMYSAWDTLSDTMKATIEGLNVVHSATRVFGSLYQAQNRRFSNTSVKVMDVDAGDRETVHPLVVSHPVTGRRALYCNQVYCQRIEGMTDAESKPLLQFLYEHATRFDFTCRVRWKKDQVLVWDNLCTMHRAVPDYAGKFRYLTRTTVAGDKPSR
Result: 12.7
